Reported Hepatotoxicity (benign tumour) values are given for each entry in this list.
details: human;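 also: value is a count of indexed literature references citing a benign tumour confirmed by histopathology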

Use the examples below as a reference point.
Cc1ncc(CO)c(CO)c1O = 0
CC(=O)[C@@]1(O)CC[C@H]2[C@@H]3C=C(Cl)C4=CC(=O)[C@@H]5C[C@@H]5[C@]4(C)[C@H]3CC[C@@]21C = 1
Cc1ccc2c(-c3ccccc3)nc(=O)n(C(C)C)c2c1 = 0
Cc1c(F)c(N2CCNC(C)C2)cc2c1c(=O)c(C(=O)O)cn2C1CC1 (stereo not given) = 0

Kindly review the next compound as well.
Please report the recorded Hepatotoxicity (benign tumour) for Cc1c(C)c2c(c(C)c1O)CCC(C)(COc1ccc(CC3SC(=O)NC3=O)cc1)O2 (stereo not given) .
0
